Provenance of the data: patent US20260193366A1

target_or_system: T1, hIL-4Rα on cells (human, UniProt P24394 26-825)
T1 sequence: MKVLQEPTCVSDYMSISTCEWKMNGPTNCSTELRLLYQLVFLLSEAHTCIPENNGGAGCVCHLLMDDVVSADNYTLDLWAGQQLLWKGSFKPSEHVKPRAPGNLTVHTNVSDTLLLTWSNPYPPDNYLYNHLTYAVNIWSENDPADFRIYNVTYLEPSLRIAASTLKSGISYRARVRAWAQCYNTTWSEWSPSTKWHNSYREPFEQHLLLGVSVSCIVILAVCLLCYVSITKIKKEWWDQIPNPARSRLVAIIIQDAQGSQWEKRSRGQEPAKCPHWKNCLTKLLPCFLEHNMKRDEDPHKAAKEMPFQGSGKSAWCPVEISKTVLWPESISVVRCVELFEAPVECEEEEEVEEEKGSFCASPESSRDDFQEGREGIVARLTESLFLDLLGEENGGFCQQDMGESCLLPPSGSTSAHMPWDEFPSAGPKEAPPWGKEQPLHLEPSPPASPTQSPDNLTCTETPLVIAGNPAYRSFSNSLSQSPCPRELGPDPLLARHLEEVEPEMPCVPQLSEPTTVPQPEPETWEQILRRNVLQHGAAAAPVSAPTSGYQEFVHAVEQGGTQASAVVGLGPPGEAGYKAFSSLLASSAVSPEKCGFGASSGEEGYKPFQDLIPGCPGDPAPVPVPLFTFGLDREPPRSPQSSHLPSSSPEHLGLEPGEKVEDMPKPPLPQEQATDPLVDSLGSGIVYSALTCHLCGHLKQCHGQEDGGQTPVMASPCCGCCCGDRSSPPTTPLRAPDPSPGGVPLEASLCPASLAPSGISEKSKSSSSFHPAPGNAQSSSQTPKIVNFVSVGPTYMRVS
assay_remarks: cell-based or functional assay
Inhibition of IL-4 induced TF-1 Proliferation IC50 listing for selected binders.
experimental_readout: Inhibition of IL-4 induced TF-1 Proliferation IC50 (nM)

{"columns": ["binder", "observed"],
 "data": [
  ["Construct 38 (mAb471) with IgG1 YTE LALA heavy chain constant region (antibody, V domains shown) VH: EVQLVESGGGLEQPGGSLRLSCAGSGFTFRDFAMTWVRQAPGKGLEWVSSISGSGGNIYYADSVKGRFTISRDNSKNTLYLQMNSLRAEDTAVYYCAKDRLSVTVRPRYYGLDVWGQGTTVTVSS VL: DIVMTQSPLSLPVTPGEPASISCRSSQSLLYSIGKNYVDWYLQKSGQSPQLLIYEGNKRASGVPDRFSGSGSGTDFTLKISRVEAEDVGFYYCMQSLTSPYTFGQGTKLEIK", 0.052],
  ["Construct 15 (mAb423) with IgG1 YTE LALA heavy chain constant region (antibody, V domains shown) VH: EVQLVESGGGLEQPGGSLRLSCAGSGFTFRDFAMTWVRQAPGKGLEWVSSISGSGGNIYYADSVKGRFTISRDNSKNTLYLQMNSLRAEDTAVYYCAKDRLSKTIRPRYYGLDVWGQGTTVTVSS VL: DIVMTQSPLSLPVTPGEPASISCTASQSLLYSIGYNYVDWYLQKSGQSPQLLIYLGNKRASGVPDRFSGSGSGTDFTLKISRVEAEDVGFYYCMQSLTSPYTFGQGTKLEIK", 0.028],
  ["Construct 13 (mAb422) with IgG1 YTE LALA heavy chain constant region (antibody, V domains shown) VH: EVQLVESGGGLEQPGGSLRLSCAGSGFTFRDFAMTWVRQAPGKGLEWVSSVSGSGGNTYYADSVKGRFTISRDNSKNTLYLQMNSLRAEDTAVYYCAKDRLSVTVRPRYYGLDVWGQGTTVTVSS VL: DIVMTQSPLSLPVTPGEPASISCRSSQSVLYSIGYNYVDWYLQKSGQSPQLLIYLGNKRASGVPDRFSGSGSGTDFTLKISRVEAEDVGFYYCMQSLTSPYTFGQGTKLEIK", 0.038],
  ["Construct 31 (mAb443) with IgG1 YTE LALA heavy chain constant region (antibody, V domains shown) VH: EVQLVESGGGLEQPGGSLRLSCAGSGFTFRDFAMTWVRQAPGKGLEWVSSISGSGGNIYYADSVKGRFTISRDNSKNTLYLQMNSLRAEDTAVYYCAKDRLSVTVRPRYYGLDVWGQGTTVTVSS VL: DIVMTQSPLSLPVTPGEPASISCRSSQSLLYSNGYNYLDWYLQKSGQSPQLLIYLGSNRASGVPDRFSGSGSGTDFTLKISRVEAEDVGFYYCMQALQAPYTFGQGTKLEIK", 0.058],
  ["Construct 24 (mAb432) with IgG1 YTE LALA heavy chain constant region (antibody, V domains shown) VH: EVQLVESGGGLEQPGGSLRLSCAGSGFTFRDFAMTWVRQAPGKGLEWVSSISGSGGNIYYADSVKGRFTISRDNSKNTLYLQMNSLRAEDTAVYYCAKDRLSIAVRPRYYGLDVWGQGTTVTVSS VL: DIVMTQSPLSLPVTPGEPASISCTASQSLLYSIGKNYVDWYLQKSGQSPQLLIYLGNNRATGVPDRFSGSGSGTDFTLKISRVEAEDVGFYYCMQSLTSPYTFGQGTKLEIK", 0.052]
]}
